- STUDY TARGET: CYP3A4 (Homo sapiens)
- Sequence (P08684 whole entry): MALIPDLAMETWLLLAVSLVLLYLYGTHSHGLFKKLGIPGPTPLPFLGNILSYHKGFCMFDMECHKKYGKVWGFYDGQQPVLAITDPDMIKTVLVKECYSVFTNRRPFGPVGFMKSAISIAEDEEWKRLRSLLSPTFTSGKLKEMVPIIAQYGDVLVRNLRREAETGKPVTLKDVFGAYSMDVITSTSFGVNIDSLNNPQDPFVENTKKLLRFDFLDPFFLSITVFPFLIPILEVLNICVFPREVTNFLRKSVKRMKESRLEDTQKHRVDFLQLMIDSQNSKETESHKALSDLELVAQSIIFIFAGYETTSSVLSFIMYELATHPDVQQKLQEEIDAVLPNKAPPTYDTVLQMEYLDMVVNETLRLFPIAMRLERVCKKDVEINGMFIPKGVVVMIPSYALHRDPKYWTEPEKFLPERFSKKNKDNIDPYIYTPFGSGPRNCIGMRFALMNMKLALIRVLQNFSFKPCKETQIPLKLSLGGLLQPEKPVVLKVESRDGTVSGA
Provide the recorded pIC50 for the entries that follow.
Scale note: pIC50 = -log10(concentration in M).

Recall the recorded pIC50 for CN1CCN(C2Cc3ccccc3Sc3ccc(Cl)cc32)CC1.O=C(O)/C=C\C(=O)O (centres unmarked) [Octoclothepine maleate] with CYP3A4 (Homo sapiens) and state it. 5.64

Recall the recorded pIC50 for CCCCCCCCCCCCCCCCn1cc[n+](C)c1.[Cl-] [1-Hexadecyl-3-methylimidazolium chloride] with CYP3A4 (Homo sapiens) and state it. 4.20

Recall the recorded pIC50 for C=CCOC(Cn1ccnc1)c1ccc(Cl)cc1Cl.O=S(=O)(O)O (centres unmarked) [Imazalil sulfate] with CYP3A4 (Homo sapiens) and state it. 6.92

Recall the recorded pIC50 for Cl.Clc1ccc(C(OCCN2CCCCC2)c2ccccc2)cc1 (centres unmarked) [Cloperastine hydrochloride] with CYP3A4 (Homo sapiens) and state it. 5.35

Recall the recorded pIC50 for NNc1nc(-c2ccccc2)cs1 [2-Hydrazino-4-phenylthiazole] with CYP3A4 (Homo sapiens) and state it. 4.86

Recall the recorded pIC50 for O=C1CCCc2c1cc1ccc3cccc4ccc2c1c34 [9,10-Dihydrobenzo[a]pyren-7(8H)-one] with CYP3A4 (Homo sapiens) and state it. 5.04

Recall the recorded pIC50 for CSc1ccc(C(=O)C(C)(C)N2CCOCC2)cc1 with CYP3A4 (Homo sapiens) and state it. 5.50

Recall the recorded pIC50 for CC(=C(CCOC(=O)C(C)C)SSC(CCOC(=O)C(C)C)=C(C)N(C=O)Cc1cnc(C)nc1N)N(C=O)Cc1cnc(C)nc1N (stereo in doubt) with CYP3A4 (Homo sapiens) and state it. 6.44

* * *

- STUDY TARGET: human CYP1A2 (Homo sapiens)
- Sequence (P05177 1-516): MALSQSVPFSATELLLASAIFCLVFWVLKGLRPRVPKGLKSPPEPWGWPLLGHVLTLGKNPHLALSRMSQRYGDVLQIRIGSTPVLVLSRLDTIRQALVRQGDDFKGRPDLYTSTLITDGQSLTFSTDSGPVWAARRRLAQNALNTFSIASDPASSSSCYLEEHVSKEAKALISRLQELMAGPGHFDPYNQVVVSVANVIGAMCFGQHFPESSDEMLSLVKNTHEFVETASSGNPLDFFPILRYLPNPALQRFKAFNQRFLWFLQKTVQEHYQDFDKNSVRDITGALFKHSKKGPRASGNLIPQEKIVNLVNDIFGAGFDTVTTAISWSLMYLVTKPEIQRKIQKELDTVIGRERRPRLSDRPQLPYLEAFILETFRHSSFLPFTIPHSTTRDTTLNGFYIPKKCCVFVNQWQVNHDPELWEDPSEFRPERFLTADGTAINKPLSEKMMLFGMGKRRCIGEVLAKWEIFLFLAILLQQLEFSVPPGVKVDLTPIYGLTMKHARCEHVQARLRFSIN
- TEST SUMMARY: biochemical
- RUN PARAMETERS: CYP1A2 IC50
ATTRIBUTE MEASURED: log10(IC50) (log10 of the value in nM)
Scale: log10; quantity: IC50; unit before log: nM

Recall the recorded log10(IC50) for CC1(C)C2(Cl)C(Cl)C(Cl)C(Cl)(C(Cl)Cl)C1(Cl)C2Cl (stereo not shown) [Strobane] with human CYP1A2 (Homo sapiens) and state it. 4.61

Recall the recorded log10(IC50) for CCOC(=O)C(SP(=S)(OC)OC)c1ccccc1 (stereo not shown) [Phenthoate] with human CYP1A2 (Homo sapiens) and state it. 3.58

Recall the recorded log10(IC50) for c1ccc2cc3c(cc2c1)-c1cccc2cccc-3c12 [Benzo(k)fluoranthene] with human CYP1A2 (Homo sapiens) and state it. 2.23

Recall the recorded log10(IC50) for Cc1ccc2cc3c(ccc4ccccc43)c3c2c1CC3 [3-Methylcholanthrene] with human CYP1A2 (Homo sapiens) and state it. 2.59

Recall the recorded log10(IC50) for Cc1cc(C)c(N)cc1C [2,4,5-Trimethylaniline] with human CYP1A2 (Homo sapiens) and state it. 2.94

Recall the recorded log10(IC50) for Nc1c(Cl)c(Cl)c(Cl)c(Cl)c1Cl [Pentachloroaniline] with human CYP1A2 (Homo sapiens) and state it. 2.93

Recall the recorded log10(IC50) for CC(C)Nc1ccc(Nc2ccccc2)cc1 [N-Isopropyl-N'-phenyl-p-phenylenediamine] with human CYP1A2 (Homo sapiens) and state it. 4.55

Recall the recorded log10(IC50) for ClC1=C(Cl)C2(Cl)C3C4C=CC(C4)C3C1(Cl)C2(Cl)Cl (stereo not shown) [Aldrin] with human CYP1A2 (Homo sapiens) and state it. 4.55

Recall the recorded log10(IC50) for CCOC(=O)CC(SP(=S)(OC)OC)C(=O)OCC (stereo not shown) [Malathion] with human CYP1A2 (Homo sapiens) and state it. 3.33

Recall the recorded log10(IC50) for Cc1ccc2ccc3cccc4ccc1c2c34 [1-Methylpyrene] with human CYP1A2 (Homo sapiens) and state it. 2.93

Recall the recorded log10(IC50) for c1ccc2c(c1)-c1cccc3c1c-2cc1ccccc13 [Benzo(b)fluoranthene] with human CYP1A2 (Homo sapiens) and state it. 2.84

Recall the recorded log10(IC50) for CCN(CC)CCNc1ccc(CO)c2sc3ccccc3c(=O)c12 [Hycanthone] with human CYP1A2 (Homo sapiens) and state it. 2.76

Recall the recorded log10(IC50) for CCN(CC)CCCC(C)Nc1c2ccc(Cl)cc2nc2ccc(OC)cc12 (stereo not shown) [Quinacrine] with human CYP1A2 (Homo sapiens) and state it. 3.34

Recall the recorded log10(IC50) for Oc1ccc2[nH]cc(CCCCN3CC=C(c4ccccc4)CC3)c2c1 [Roxindole] with human CYP1A2 (Homo sapiens) and state it. 4.35

Recall the recorded log10(IC50) for CN(Cc1ccc(C(C)(C)C)cc1)Cc1cccc2ccccc12 [Butenafine] with human CYP1A2 (Homo sapiens) and state it. 4.39

Recall the recorded log10(IC50) for Cl[C@H]1[C@H](Cl)[C@@H](Cl)[C@H](Cl)[C@@H](Cl)[C@@H]1Cl [beta-Hexachlorocyclohexane] with human CYP1A2 (Homo sapiens) and state it. 3.06

Recall the recorded log10(IC50) for c1ccc2c(c1)ccc1c3ccccc3ccc21 [Chrysene] with human CYP1A2 (Homo sapiens) and state it. 2.81

Recall the recorded log10(IC50) for CCCCN(CCCC)CC(O)c1cc(Cl)cc2c1-c1ccc(Cl)cc1/C2=C/c1ccc(Cl)cc1 (stereo not shown) [Lumefantrine] with human CYP1A2 (Homo sapiens) and state it. 4.17

Recall the recorded log10(IC50) for ClC1=C(Cl)C2(Cl)C3C4CC(C5OC45)C3C1(Cl)C2(Cl)Cl (stereo not shown) [Endrin] with human CYP1A2 (Homo sapiens) and state it. 4.73
